experimental.context: PAMPA, 10 µM, pH 7.4
Positions of bridges follow the written chain, without caps; N, C: chain ends. Non-standard residues stand in square brackets, D forms with d. Residues, ends and D or L forms follow the SMILES beside them. Cha = N[C@@H](CC1CCCCC1)C(=O)O; NMeNva = CCC[C@H](NC)C(=O)O; NMeC = CN[C@@H](CS)C(=O)O; NMeA = CN[C@@H](C)C(=O)O; NEtG = CCNCC(=O)O
observed.property: %R_avg
Your answer should be a number followed by the unit of measure.

CCOC(=O)[C@@H]1CSCC(=O)N[C@@H](CC(C)C)C(=O)N(CC)CC(=O)N[C@@H](CC(C)C)C(=O)N2CCC[C@@H]2C(=O)N(C)[C@@H](C)C(=O)N[C@@H](CC2CCCCC2)C(=O)N(C)[C@@H](C)C(=O)N[C@@H](CC(C)C)C(=O)N1C [LB10] ({CH2CO}-L[NEtG]L[dP][NMeA][Cha][NMeA]L[NMeC]-OEt; thioether N-9); 8.0%
CCC[C@H]1C(=O)N[C@@H](CC2CCCCC2)C(=O)N(C)[C@@H](C)C(=O)N[C@@H](CC(C)C)C(=O)N(C)[C@H](C(=O)OCC)CSCC(=O)N[C@@H](CC(C)C)C(=O)N(C)[C@@H](C)C(=O)N[C@@H](CC(C)C)C(=O)N2CCC[C@@H]2C(=O)N1C [LC12] ({CH2CO}-L[NMeA]L[dP][NMeNva][Cha][NMeA]L[NMeC]-OEt; thioether N-9); 12.7%

We next turn to a different molecule, shown below.
**Q:** // %R_avg lookup, key: CCOC(=O)[C@@H]1CSCC(=O)N[C@@H](CC(C)C)C(=O)N(CC)CC(=O)N[C@@H](CC(C)C)C(=O)N2CCC[C@@H]2C(=O)N(C)[C@@H](C)C(=O)N[C@@H](CC(C)C)C(=O)N(C)[C@@H](C)C(=O)N[C@@H](CC(C)C)C(=O)N1C [LB06] ({CH2CO}-L[NEtG]L[dP][NMeA]L[NMeA]L[NMeC]-OEt; thioether N-9)
**A:** 12.6%

---

assay.remarks: PAMPA, compounds measured in multiplex as mixtures (primary protocol)
experimental.context: PAMPA, pH 7.4, PAMPA Papp, internal standard, 10 µM, Lipo expt. group B1
observed.property: Papp at 10 µM (×10⁻⁶ cm/s)
Give bare numbers, in ×10⁻⁶ cm/s.

**Q:** Please give the measured Papp at 10 µM for this compound: NC(=O)N1c2ccccc2C=Cc2ccccc21 [Carbamazepine]
**A:** 5.8

Entry source: paper PMC10885153
